# assayed.target: TR beta-LBD (Homo sapiens, UniProt P10828)
# Sequence (P10828 217-461 limits assumed): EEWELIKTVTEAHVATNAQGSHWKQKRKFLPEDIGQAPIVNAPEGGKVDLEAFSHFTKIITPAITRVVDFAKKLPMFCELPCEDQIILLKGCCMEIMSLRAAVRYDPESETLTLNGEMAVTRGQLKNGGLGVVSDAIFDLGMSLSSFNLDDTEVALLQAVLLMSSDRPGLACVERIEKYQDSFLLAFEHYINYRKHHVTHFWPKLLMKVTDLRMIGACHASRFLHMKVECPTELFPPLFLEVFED
# Format: biochemical
# condition.label: TR-FRET assay; THR beta over THR alpha, derived from T3-selectivity normalized data
property: THRβ-Selectivity
Just the number, please, no unit attached.

Some solved entries appear below for comparison.
compound="CCc1n[nH]c2ccc(Oc3c(Cl)cc(-c4n[nH]c(=O)[nH]c4=O)cc3Cl)cc12 [Example 2]" assayed_target="TR beta-LBD (Homo sapiens, UniProt P10828)" assay_result=28.0
compound="Cc1n[nH]c2ccc(Oc3c(Cl)cc(NC(=O)c4noc(=O)[nH]4)cc3Cl)cc12 [Example 4]" assayed_target="TR beta-LBD (Homo sapiens, UniProt P10828)" assay_result=18.8

Recorded THRβ-Selectivity for CC(C)n1cnc2ccc(Oc3c(Cl)cc(-n4nc(C#N)c(=O)[nH]c4=O)cc3Cl)cc21 [Example 21] , please?
12.9

Then what about the compound N#Cc1nn(-c2cc(Cl)c(Oc3ccc4ncccc4c3)c(Cl)c2)c(=O)[nH]c1=O [Example 13] ?
3.7

Now try Cc1ccnc2ccc(Oc3c(Cl)cc(NC(=O)c4noc(=O)[nH]4)cc3Cl)cc12 [Example 25] .
1286.7

Values were extracted from patent US12528791B2.
